Tested on: NCI-H460
test description: NCI tumour cell line growth inhibition, 48 h
Activity calls are given as the source filed them. Cut-off read from the data, not from the text of the source: active = GI50 up to about 1.1 µM and inactive = higher.
Below, each entry is listed with its recorded GI50.

Answered cases to consult:
compound	target of assay	reported value
CN(C)CCCNC(=O)N/N=C/c1ccccc1	NCI-H460	> 100 µM (inactive)
CC(=O)OC1C(COC(=O)c2ccccc2)OC(Nc2ncc(-c3ccc(Br)cc3)s2)C(OC(=O)c2ccccc2)C1OC(=O)c1ccccc1 (stereo unspecified)	NCI-H460	> 100 µM (inactive)
O=C(NNC(=O)c1ccccc1O)c1cccc(Br)c1	NCI-H460	8.43 µM (inactive)
N#CCCCCC12C3C(=O)N(c4ccccc4)C(=O)C3ON1O[C@@H]1C(=O)N(c3ccccc3)C(=O)[C@@H]12 (stereo partly specified)	NCI-H460	> 100 µM (inactive)
O=C1NC(=O)C(CCO)(c2ccccc2)C(=O)N1	NCI-H460	> 100 µM (inactive)

Continue with the compound presented below.
Sample NC(=O)c1ccc(NS(=O)(=O)c2ccc(N)cc2)nc1 ; GI50 observed: > 100 µM (inactive)

====

System: UO-31
test description: NCI tumour cell line growth inhibition, 48 h
Active and inactive are the calls of the source. Cut-off read from the data, not from the text of the source: active = GI50 up to about 1.1 µM and inactive = higher.
Below, each entry is listed with its recorded GI50.

Answered cases to consult:
compound	target of assay	reported value
O=C(O)c1ccc(Nc2c3ccccc3nc3ccccc23)cc1	UO-31	54.6 µM (inactive)
O=C1OCC(c2ccc(Cl)cc2)=C1Cl	UO-31	18.1 µM (inactive)
Cn1nc(-c2ccccc2)c2c(/C=C/c3ccc(Cl)cc3)onc2c1=O	UO-31	16.3 µM (inactive)

Sample CCOC(=O)CCC(NC(=O)c1ccc(Nc2nc3ccccc3nc2-c2cccs2)cc1)C(=O)OCC (stereo not given) ; GI50 observed: 30.9 µM (inactive)

Sample CCc1cccc(CC)c1NC(=O)C1=C(C)NC(C)=C(C(=O)Nc2c(CC)cccc2CC)C1c1ccc([N+](=O)[O-])cc1 ; GI50 observed: 23.2 µM (inactive)

====

Below, each entry is listed with its recorded GI50.
Tested on: HOP-92
test description: NCI tumour cell line growth inhibition, 48 h
Activity calls are given as the source filed them. Rule as the data show it: active = GI50 up to about 1.1 µM and inactive = higher.

compound	experimental endpoint	reported value
C[C@@H]1OC(=O)C[C@H]2CC(=O)N(CCC3CN(S(=O)(=O)C(F)(F)F)c4ccc(Cc5ccc6c(c5)C(CCN5C[C@H]7[C@@H](CC(=O)O[C@H]7C)CC5=O)CN6S(=O)(=O)C(F)(F)F)cc43)C[C@@H]21 (some centres undefined)	GI50	> 100 µM (inactive)
Cc1ccc(C#CS(=O)(=O)C(F)(F)F)cc1	GI50	> 100 µM (inactive)
CCCCC(=C=C1CCCCC1O)C1CCCN1C(=O)OC(C)(C)C (centres undefined)	GI50	12.8 µM (inactive)
COC(=O)c1sc(=S)sc1SCc1ccccc1CSc1sc(=S)sc1C(=O)OC	GI50	> 100 µM (inactive)
O=C1NC(=O)C(CCO)(c2ccccc2)C(=O)N1	GI50	> 100 µM (inactive)
Cc1nc2ccccc2c(=O)n1NC(=O)c1ccccc1[N+](=O)[O-]	GI50	> 100 µM (inactive)

Tested system HOP-92; GI50 recorded for Cn1c(=O)c(C(=O)NC(=O)OCc2ccccc2)cn(CCSCCOC(=O)NCCCCCCNC(=O)OCCSCCn2cc(C(=O)NC(=O)OCc3ccccc3)c(=O)n(C)c2=O)c1=O was 23.2 µM (inactive)

Tested system HOP-92; GI50 recorded for O=c1oc2cc(/N=C/c3ccc4c(c3)OCO4)ccc2c2ccccc12 was > 100 µM (inactive)

Tested system HOP-92; GI50 recorded for CN1CC[C@]2(C)c3c(O)cccc3CC3CCCC1C32C (some centres undefined) was 89.7 µM (inactive)
